- TESTED_TARGET: membrane-associated human IR-B (plasma membranes of BHK cells stably transfected with the human IR-B insert) (human) (UniProt P06213)
- Sequence (P06213 28-1382): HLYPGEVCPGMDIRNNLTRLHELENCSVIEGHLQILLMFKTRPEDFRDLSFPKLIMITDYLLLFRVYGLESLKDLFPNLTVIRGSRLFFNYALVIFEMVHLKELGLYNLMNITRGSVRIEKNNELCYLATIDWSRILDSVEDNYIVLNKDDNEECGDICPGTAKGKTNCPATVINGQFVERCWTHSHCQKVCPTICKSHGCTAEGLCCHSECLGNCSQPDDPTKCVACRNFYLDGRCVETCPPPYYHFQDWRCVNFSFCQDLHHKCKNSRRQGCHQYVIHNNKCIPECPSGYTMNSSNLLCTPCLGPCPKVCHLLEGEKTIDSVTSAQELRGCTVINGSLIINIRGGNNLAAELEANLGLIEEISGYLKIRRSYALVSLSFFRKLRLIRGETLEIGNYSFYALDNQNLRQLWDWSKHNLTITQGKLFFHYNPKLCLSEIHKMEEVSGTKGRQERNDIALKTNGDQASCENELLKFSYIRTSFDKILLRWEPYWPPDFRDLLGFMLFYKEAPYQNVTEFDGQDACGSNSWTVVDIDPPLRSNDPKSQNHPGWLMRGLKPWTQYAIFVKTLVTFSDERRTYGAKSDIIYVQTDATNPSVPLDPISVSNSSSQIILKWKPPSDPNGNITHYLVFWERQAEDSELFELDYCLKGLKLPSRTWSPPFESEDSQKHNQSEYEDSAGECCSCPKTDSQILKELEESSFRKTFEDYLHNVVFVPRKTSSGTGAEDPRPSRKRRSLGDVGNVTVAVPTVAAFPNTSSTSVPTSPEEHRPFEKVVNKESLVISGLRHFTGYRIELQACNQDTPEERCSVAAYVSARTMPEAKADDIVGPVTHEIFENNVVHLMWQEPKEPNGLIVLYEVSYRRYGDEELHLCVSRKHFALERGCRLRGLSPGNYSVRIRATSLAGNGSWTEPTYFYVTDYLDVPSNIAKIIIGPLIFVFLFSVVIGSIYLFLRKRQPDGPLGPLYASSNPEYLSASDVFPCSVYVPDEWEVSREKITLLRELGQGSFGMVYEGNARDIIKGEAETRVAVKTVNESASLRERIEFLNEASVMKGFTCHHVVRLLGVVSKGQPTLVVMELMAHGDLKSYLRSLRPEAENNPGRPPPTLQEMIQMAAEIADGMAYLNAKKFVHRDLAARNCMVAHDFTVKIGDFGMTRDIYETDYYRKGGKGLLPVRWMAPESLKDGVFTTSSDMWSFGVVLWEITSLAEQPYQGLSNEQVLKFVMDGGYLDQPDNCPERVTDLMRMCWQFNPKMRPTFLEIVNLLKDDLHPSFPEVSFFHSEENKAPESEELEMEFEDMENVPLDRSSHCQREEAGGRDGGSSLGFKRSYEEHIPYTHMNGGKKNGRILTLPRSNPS
- MEASUREMENT_DESCRIPTION: SPA competition vs [125I-A14Y]-human insulin, membrane hIR-B, 0.1% HSA
Measured relative binding affinity (% rel to HI) of individual entries

Known results for binders:
A14E, A22K(N(eps)tetradecanedioyl-gGlu-2xOEG), B3E, B27E, B28E, B29R, desB30 human insulin (ligand, not fully specified; Lys A22 acylated on N(eps) with tetradecanedioyl-gGlu-2xOEG, Two-chain acylated insulin analogue; also called Ex. No. 2) chain 1: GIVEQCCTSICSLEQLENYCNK chain 2: FVEQHLCGSHLVEALYLVCGERGFFYEER : 70.2 % rel to HI
A14E, A22K(N(eps)hexadecanedioyl-gGlu-2xOEG), B3E, B27E, B28E, B29R, desB30 human insulin (ligand, not fully specified; Lys A22 acylated on N(eps) with hexadecanedioyl-gGlu-2xOEG, Two-chain acylated insulin analogue; also called Ex. No. 26) chain 1: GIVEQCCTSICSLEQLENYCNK chain 2: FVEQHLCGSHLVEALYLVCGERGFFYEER : 28.7 % rel to HI
A8R, A22K(N(eps)tetradecanedioyl-4xgGlu), B3E, B26E, B27E, B28R, desB29, desB30 human insulin (ligand, not fully specified; Lys A22 acylated on N(eps) with tetradecanedioyl-4xgGlu, Two-chain acylated insulin analogue; also called Ex. No. 19) chain 1: GIVEQCCRSICSLYQLENYCNK chain 2: FVEQHLCGSHLVEALYLVCGERGFFEER : 155 % rel to HI
A14E, A22K(N(eps)tetradecanedioyl-4xgGlu), B3E, B27E, B28E, B29R, desB30 human insulin (ligand, not fully specified; Lys A22 acylated on N(eps) with tetradecanedioyl-4xgGlu, Two-chain acylated insulin analogue; also called Ex. No. 4) chain 1: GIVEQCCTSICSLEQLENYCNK chain 2: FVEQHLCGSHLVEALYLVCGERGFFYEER : 56.6 % rel to HI
A8R, A22K(N(eps)tetradecanedioyl-4xgGlu), B3E, B26E, B27P, B28R, desB29, desB30 human insulin (ligand, not fully specified; Lys A22 acylated on N(eps) with tetradecanedioyl-4xgGlu, also called Ex. No. 16) chain 1: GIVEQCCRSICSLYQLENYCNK chain 2: FVEQHLCGSHLVEALYLVCGERGFFEPR : 168 % rel to HI

Give the value of relative binding affinity (% rel to HI) reported for the following: A14E, A22K(N(eps)tetradecanedioyl-4xgGlu), B3Q, B28D, B29R, desB30 human insulin (ligand, not fully specified; Lys A22 acylated on N(eps) with tetradecanedioyl-4xgGlu, also called Ex. No. 8) chain 1: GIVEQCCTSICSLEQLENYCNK chain 2: FVQQHLCGSHLVEALYLVCGERGFFYTDR
59.1 % rel to HI
